Entry source: patent US20230158025A1

- measured-on: recombinant human GALK1 (Homo sapiens)
- test-name: hGALK1 biochemical activity assay (Kinase-Glo Plus, ATP depletion)
- condition-parameters: recombinant human GALK1, Kinase-Glo Plus ATP depletion; read-out: hGALK
property: IC50 (µM)

CC1=C(C(=O)Nc2nc(C(=O)O)cs2)C(c2ccccc2Cl)N=C(Nc2nc3ccccc3o2)N1 (stereo not shown) :: 9.68
CC1=C(C(=O)Nc2cc(C(=O)O)ccn2)C(c2ccc(C)cc2Cl)N=C(Nc2nc3cccnc3o2)N1 (stereo not shown) :: 12.2
CC1=C(C(=O)Nc2cc(C(=O)O)ccn2)C(c2cccc(Cl)c2Cl)N=C(Nc2nc3ccc(F)cc3o2)N1 (stereo not shown) :: 8.63
CC1=C(C(=O)Nc2ccc(Br)cc2)C(c2ccccc2Cl)N=C(Nc2nc3ccccc3o2)N1 (stereo not shown) :: 9.68

* * *

- test-name: aqueous kinetic solubility
- condition-parameters: aqueous kinetic solubility
Below: a set of entries, each annotated with reported Sol..

CC1=C(C(=O)Nc2ncc(C(=O)O)s2)C(c2ccccc2Cl)N=C(Nc2nc3ccccc3o2)N1 (stereo not drawn) :: >75 µg/mL
CC(C)C1=C(C(=O)Nc2nncs2)C(c2ccccc2Cl)N=C(Nc2nc3ccccc3o2)N1 (stereo not drawn) :: <1 µg/mL

Let's switch to this molecule now.
QUERY: For CC1=C(C(=O)Nc2nc(CO)cs2)C(c2ccccc2Cl)N=C(Nc2nc3ccccc3o2)N1 (stereo not drawn) , what is its reported Sol.?
RESULT: <1 µg/mL

* * *

- measured-on: recombinant mouse GALK1 (Mus musculus, UniProt Q9R0N0)
- Sequence (Q9R0N0 whole entry): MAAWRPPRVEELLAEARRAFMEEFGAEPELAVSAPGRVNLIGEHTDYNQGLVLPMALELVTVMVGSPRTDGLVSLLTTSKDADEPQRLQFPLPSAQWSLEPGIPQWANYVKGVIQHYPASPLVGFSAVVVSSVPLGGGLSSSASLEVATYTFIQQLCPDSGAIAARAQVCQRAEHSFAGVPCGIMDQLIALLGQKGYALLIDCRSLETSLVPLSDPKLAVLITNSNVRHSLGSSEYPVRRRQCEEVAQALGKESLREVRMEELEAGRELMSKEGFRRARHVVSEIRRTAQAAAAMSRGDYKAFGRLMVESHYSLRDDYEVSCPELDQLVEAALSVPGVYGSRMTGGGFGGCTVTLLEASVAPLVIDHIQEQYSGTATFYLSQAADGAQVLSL
- test-name: mGALK1 biochemical activity assay (Kinase-Glo Plus, ATP depletion)
- condition-parameters: recombinant mouse GALK1, Kinase-Glo Plus ATP depletion; read-out: mGALK
property: IC50 (µM)

CCn1cc(CNC(=O)C2=C(C)NC(Nc3nc4ccc(F)c(N)c4o3)=N[C@H]2c2ccc(C)cc2Cl)cn1 :: 0.97
CC1=C(C(=O)NCc2cnn(C)c2)[C@H](c2ccc(C)cc2Cl)N=C(Nc2nc3cccc(N)c3o2)N1 :: 1.58
CC1=C(C(=O)NCc2cnn(CC(F)(F)F)c2)C(c2ccc(C)cc2Cl)N=C(Nc2nc3ccc(F)c(N)c3o2)N1 (stereo not drawn) :: 3.06
CC1=C(C(=O)Nc2ccc(-c3nn[nH]n3)cn2)C(c2ccccc2Cl)N=C(Nc2nc3ccc(F)cc3o2)N1 (stereo not drawn) :: 12.2
CC1=C(C(=O)NCc2cncn2C)C(c2ccccc2Cl)N=C(Nc2nc3ccccc3o2)N1 (stereo not drawn) :: 6.85

[a] CC1=C(C(=O)Nc2nnc(-c3cccnc3)s2)C(c2ccccc2Cl)N=C(Nc2nc3cc(F)ccc3o2)N1 (stereo not drawn)
[b] COC(=O)c1ccccc1CNC(=O)C1=C(C)NC(Nc2nc3ccccc3o2)=NC1c1ccccc1Cl (stereo not drawn)
QUERY: Consider a and b . Which of these has its IC50 at a higher number? Return value: the label identifying the chosen record.
RESULT: a

[I] CC1=C(C(=O)Nc2ccccc2O)C(c2ccccc2Cl)N=C(Nc2nc3ccccc3o2)N1 (stereo not drawn)
[II] CC1=C(C(=O)Nc2ccccc2F)C(c2ccccc2Cl)N=C(Nc2nc3ccccc3o2)N1 (stereo not drawn)
QUERY: Consider I and II . Which of these has its IC50 at a higher number? Return value: the label identifying the chosen record.
RESULT: I

* * *

- measured-on: recombinant mouse GALK1 (Mus musculus, UniProt Q9R0N0)
- test-name: mGALK1 biochemical activity assay (Kinase-Glo Plus, ATP depletion)
- condition-parameters: Tables 2-15; 35 μM ATP, 100 μM galactose, 1 h; bracketed figure after some values is undefined and not reported; read-out: mGALK IC50
property: IC50 (µM)

COc1ccc2oc(NC3=NC(c4ccccc4Cl)C(C(=O)Nc4cc(C(=O)O)ccn4)=C(C)N3)nc2c1 (centres unmarked) :: 12.2
CC1=C(C(=O)Nc2cccc(C(N)=O)c2)C(c2ccccc2Cl)N=C(Nc2nc3ccccc3o2)N1 (centres unmarked) :: 17.2
CC1=C(C(=O)Nc2cccc(CO)c2)C(c2ccccc2Cl)N=C(Nc2nc3ccccc3o2)N1 (centres unmarked) :: 9.68
CCOc1ccc(C2N=C(Nc3nc4ccc(F)cc4o3)NC(C)=C2C(=O)Nc2cc(C(=O)O)ccn2)c(Cl)c1 (centres unmarked) :: 3.85
CC1=C(C(=O)NCc2c(C)nn(C)c2C)C(c2ccc(C)cc2Cl)N=C(Nc2nc3ccc(F)cc3o2)N1 (centres unmarked) :: 4.85
CC1=C(C(=O)Nc2cc(C(=O)O)ccn2)C(c2cccc(F)c2Cl)N=C(Nc2nc3ccc(F)cc3o2)N1 (centres unmarked) :: 15.3

[1] CC1=C(C(=O)NCc2cn(C)cn2)C(c2ccccc2Cl)N=C(Nc2nc3ccccc3o2)N1 (racemic)
[2] CC1=C(C(=O)Nc2cc(C(=O)O)ccn2)C(c2ccc(F)cc2Cl)N=C(Nc2nc3ccc(F)cc3o2)N1 (centres unmarked)
QUERY: Please indicate which has the smaller reported IC50: 1 , or 2 . Return value: the label identifying the chosen record.
RESULT: 2

* * *

- measured-on: recombinant mouse GALK1 (Mus musculus, UniProt Q9R0N0)
- test-name: mGALK1 biochemical activity assay (Kinase-Glo Plus, ATP depletion)
- condition-parameters: recombinant mouse GALK1, Kinase-Glo Plus ATP depletion; read-out: mGALK
pIC50: −log10 of the molar value.
property: pIC50

COC(=O)c1cc(NC(=O)C2=C(C)NC(Nc3nc4ccccc4o3)=NC2c2ccccc2Cl)ccn1 (stereo not shown) :: 4.96

[a] CNC(=O)c1ccnc(NC(=O)C2=C(C)NC(Nc3nc4ccccc4o3)=NC2c2ccccc2Cl)c1 (stereo not shown)
[b] CC1=C(C(=O)Nc2cc(C(=O)O)ccn2)[C@@H](c2ccccc2Cl)N=C(Nc2nc3ccccc3o2)N1
[c] CC1=C(C(=O)Nc2cc(C(=O)O)ccn2)C(c2ccccc2Cl)N=C(Nc2nc3cccc(C(F)(F)F)c3o2)N1 (stereo not shown)
QUERY: Parameters: sort_field (pIC50), sort_dir (desc). Return the labels ranked in the requested order, please.
RESULT: a, b, c

* * *

- measured-on: recombinant mouse GALK1 (Mus musculus)
- test-name: mGALK1 biochemical activity assay (Kinase-Glo Plus, ATP depletion)
- condition-parameters: recombinant mouse GALK1, Kinase-Glo Plus ATP depletion; read-out: mGALK
property: IC50 (µM)

These recorded examples may help you get a feel for the data.
CC1=C(C(=O)Nc2cc(C(=O)O)ccn2)C(c2ccccc2Cl)N=C(Nc2nc3cccc(F)c3o2)N1 (stereo not drawn) [Compound 10] :: 8.63
CC1=C(C(=O)Nc2ccc(C#N)cc2)C(c2ccccc2Cl)N=C(Nc2nc3ccccc3o2)N1 (stereo not drawn) [Compound 189] :: 13.7
CC1=C(C(=O)NCc2cnn(C)c2)C(c2ccc(C)cc2Cl)N=C(Nc2nc3cnccc3o2)N1 (stereo not drawn) [Compound 104] :: 12.2
CCn1cc(CNC(=O)C2=C(C)NC(Nc3nc4ccc(F)c(N)c4o3)=N[C@@H]2c2ccc(C)cc2Cl)cn1 [Compound 134] :: 10.9

[a] COC(=O)Cc1cccc(NC(=O)C2=C(C)NC(Nc3nc4ccccc4o3)=NC2c2ccccc2Cl)c1 (stereo not drawn) [Compound 176]
[b] CC1=C(C(=O)NCc2cn(C)cn2)C(c2ccccc2Cl)N=C(Nc2nc3ccccc3o2)N1 (racemic) [Compound 233]
QUERY: Consider a and b . Which of these has its IC50 at a higher number? Return value: the label identifying the chosen record.
RESULT: a

* * *

- measured-on: recombinant human GALK1 (Homo sapiens, UniProt P51570)
- Sequence (P51570 whole entry): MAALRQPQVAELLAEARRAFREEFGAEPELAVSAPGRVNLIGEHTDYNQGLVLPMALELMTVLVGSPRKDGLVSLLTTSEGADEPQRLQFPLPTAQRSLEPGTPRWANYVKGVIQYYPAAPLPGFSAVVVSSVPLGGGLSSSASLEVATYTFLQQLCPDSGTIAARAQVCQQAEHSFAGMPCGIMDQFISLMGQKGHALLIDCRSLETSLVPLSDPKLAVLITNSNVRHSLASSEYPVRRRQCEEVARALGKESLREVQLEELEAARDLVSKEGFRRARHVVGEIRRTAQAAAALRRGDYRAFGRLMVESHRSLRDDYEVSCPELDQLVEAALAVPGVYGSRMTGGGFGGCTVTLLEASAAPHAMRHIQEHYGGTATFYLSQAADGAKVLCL
- test-name: hGALK1 biochemical activity assay (Kinase-Glo Plus, ATP depletion)
- condition-parameters: recombinant human GALK1, Kinase-Glo Plus ATP depletion; read-out: hGALK
pIC50: −log10 of the molar value.
property: pIC50

These recorded examples may help you get a feel for the data.
CC1=C(C(=O)Nc2ccc(N3CCNCC3)cc2)C(c2ccccc2Cl)N=C(Nc2nc3ccccc3o2)N1 (centres unmarked) :: 4.16
CC1=C(C(=O)Nc2cc(C(=O)O)ccn2)C(c2cccc(C(F)(F)F)c2)N=C(Nc2nc3ccc(F)cc3o2)N1 (centres unmarked) :: 4.71
COC(=O)c1cc(NC(=O)C2=C(C)NC(Nc3nc4ccccc4o3)=NC2c2ccccc2Cl)ccn1 (centres unmarked) :: 5.11
CC1=C(C(=O)Nc2ccnc(C(=O)O)c2)C(c2ccccc2Cl)N=C(Nc2nc3ccccc3o2)N1 (centres unmarked) :: 5.46
COC(=O)c1ccccc1CNC(=O)C1=C(C)NC(Nc2nc3ccccc3o2)=NC1c1ccccc1Cl (centres unmarked) :: 5.16

[a] CC1=C(C(=O)Nc2cc(C(=O)O)ccn2)C(c2ccccc2Cl)N=C(Nc2nc3ccccc3o2)N1 (racemic)
[b] CC1=C(C(=O)Nc2nnc(-c3cccnc3)s2)C(c2ccccc2Cl)N=C(Nc2nc3cc(C)ccc3o2)N1 (centres unmarked)
[c] CC1=C(C(=O)Nc2cc(C(=O)O)ccn2)[C@@H](c2ccc(C)cc2Cl)N=C(Nc2nc3ccc(F)cc3o2)N1
[d] CCn1cc(CNC(=O)C2=C(C)NC(Nc3nc4ccc(F)c(N)c4o3)=NC2c2ccc(C)cc2Cl)cn1 (racemic)
[e] CC1=C(C(=O)NCc2cnn(C)c2C)C(c2ccc(C)cc2Cl)N=C(Nc2nc3ccc(F)cc3o2)N1 (centres unmarked)
QUERY: Parameters: sort_field (pIC50), sort_dir (desc). Return the labels ranked in the requested order, please.
RESULT: d, e, a, c, b
(d: 7.30, e: 6.31, a: 5.97, c: 5.71, b: 5.31)

[a] CC1=C(C(=O)Nc2cc(-c3nn[nH]n3)ccn2)C(c2ccccc2Cl)N=C(Nc2nc3ccc(F)cc3o2)N1 (centres unmarked)
[b] COc1ccc([C@H]2N=C(Nc3nc4ccc(F)cc4o3)NC(C)=C2C(=O)Nc2cc(C(=O)O)ccn2)c(Cl)c1
QUERY: Please indicate which has the smaller reported pIC50: a , or b . Return value: the label identifying the chosen record.
RESULT: b
